# experimentNotes: chemical genetic growth profiling, strain panel (AID 1159580);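 also: tested at 20 µM; growth read once vehicle control cultures reached saturation at 30 °C; 1 = growth at the plate median or of vehicle wells; lower values mean less growth of the strain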
# measurementConditions: S. cerevisiae deletion strains, growth OD, locus YLR320W, strain mms22, stronger effect = lower value
In all, about 5,500 compounds went through this assay and about 2,000 (36%) were called active. Roughly 18% stayed inconclusive and do not appear here. The list shows a part of the results. Where a SMILES comes first, the peptide text is derived from it. Bridges are numbered along the chain shown (N, C = ends). [ ]: non-standard residue; d: D form. The star is where a group is joined. ξ: configuration not given here. ξDab(CH2SO3H) = NC(CCNCS(=O)(=O)O)C(=O)O; Heptanoyl(6-Me) = CC(C)CCCCC(=O)*; Dab = NCC[CH](N)C(=O)O
Quick reference for normalized growth among some molecules
Provide a numeric answer; units are not to be included.

Prompt line: Any idea what its normalized growth is? The molecule is `COC(=O)Nc1nc2ccc(Sc3ccccc3)cc2[nH]1`
Response line: 0.998

Prompt line: Given the entry CCC(C)C1NC(=O)C(CCNCS(=O)(=O)O)NC(=O)C(NC(=O)C(CCNCS(=O)(=O)O)NC(=O)C(NC(=O)C(CCNCS(=O)(=O)O)NC(=O)CCCCC(C)C)C(C)O)CCNC(=O)C(C(C)O)NC(=O)C(CCNCS(=O)(=O)O)NC(=O)C(CCNCS(=O)(=O)O)NC(=O)C(C(C)CC)NC1=O (stereo unspecified) ({Heptanoyl(6-Me)}-[ξDab(CH2SO3H)]T[ξDab(CH2SO3H)][Dab][ξDab(CH2SO3H)]II[ξDab(CH2SO3H)][ξDab(CH2SO3H)]T; lactam 4-C; configuration not given here) , report its measured normalized growth.
Response line: 0.96

Prompt line: I would be grateful if you could share the reported normalized growth for `NC12CC3CC(CC(C3)C1)C2` .
Response line: 0.977

Prompt line: # input molecule: CCC(C)C(=O)O[C@H]1[C@H](O)C2C(CN3CC(C)CCC3[C@@]2(C)O)C2C[C@]34O[C@]5(O)C(OC(=O)C(C)(O)CC)CC[C@@]3(C)C5C(OC(C)=O)[C@@H](OC(C)=O)C4[C@@]21O (stereo partly specified) ; wanted: its normalized growth
Response line: 1.02

Prompt line: Which normalized growth value is on record for `COc1ccc2c(c1)c(CC(=O)O)c(C)n2C(=O)c1ccc(Cl)cc1` ?
Response line: 0.819

Prompt line: // returns reported normalized growth for input `Cc1ccnc(NS(=O)(=O)c2ccc(N)cc2)n1`
Response line: 0.961

* * *

# experimentNotes: chemical genetic growth profiling, strain panel (AID 1159580);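 also: tested at 20 µM; growth read once vehicle control cultures reached saturation at 30 °C; 1 = growth at the plate median or of vehicle wells; lower values mean less growth of the strain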
# measurementConditions: S. cerevisiae deletion strains, growth OD, locus YIR030C, strain dcg1, stronger effect = lower value
Out of some 5,500 compounds screened, about 2,000 (36%) were called active. Another 18% or so got no clear call; they are omitted. The list shows a part of the results.
Mark each entry label 1 if its normalized growth sits below 1, and label 0 for all others.

Some entries whose results are on file:
{"columns": ["compound", "qualitativeLabel"],
 "data": [
  ["CC(C)=CCCC1(C)C=Cc2c(O)c3c(c(CC=C(C)C)c2O1)OC12C(=CC4CC1C(C)(C)OC2(C/C=C(/C)C(=O)O)C4O)C3=O (configuration not stated)", "label 1"],
  ["C[C@@H]1OC(O[C@H]2[C@H](OC(=O)[C@]34CCC(C)(C)CC3C3=CCC5[C@@]6(C)CC[C@H](OC7O[C@@H](C)[C@H](O[C@@H]8OC[C@@H](O)[C@H](O)[C@H]8O)[C@@H](O)[C@H]7O)C(C)(C)C6CC[C@@]5(C)[C@]3(C)CC4O)OC[C@H](O)[C@H]2O)[C@H](O)[C@H](O)[C@H]1O[C@@H]1O[C@H](CO)[C@@H](O)[C@H](O)[C@H]1O (some centres not stated)", "label 1"],
  ["Fc1ccc(C(c2ccccc2)(c2ccccc2F)n2ccnc2)cc1 (configuration not stated)", "label 1"],
  ["C/C=C(/C)C(=O)O[C@@H]1[C@H](OC(C)=O)[C@@]2(CO)C(CC1(C)C)C1=CCC3[C@@]4(C)CC[C@H](O[C@@H]5O[C@H](C(=O)O)[C@@H](O[C@@H]6O[C@H](CO)[C@@H](O)[C@H](O)[C@H]6O)[C@H](O)[C@H]5O[C@@H]5O[C@H](CO)[C@@H](O)[C@H](O)[C@H]5O)[C@](C)(CO)C4CC[C@@]3(C)[C@]1(C)C[C@H]2O (some centres not stated)", "label 0"]
]}

Prompt line: Identify whether the compound Cc1ccc(S(=O)(=O)NC(=O)NN2CC3CCCC3C2)cc1 (configuration not stated) records normalized growth below 1.
Response line: label 0

* * *

# experimentNotes: chemical genetic growth profiling, strain panel (AID 1159580);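 also: tested at 20 µM; growth read once vehicle control cultures reached saturation at 30 °C; 1 = growth at the plate median or of vehicle wells; lower values mean less growth of the strain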
# measurementConditions: S. cerevisiae deletion strains, growth OD, locus YDR502C, strain sam2, stronger effect = lower value
The whole screen tested about 5,500 compounds, of which about 2,000 (36%) were called active. Another 18% or so got no clear call; they are omitted. Some of the results follow.
Catalogue of normalized growth readings, one per entry.
Number only, no unit.

Example entries begin here.
{"columns": ["molecule", "normalized growth"],
 "data": [
  ["C/C=C(/C)C(=O)O[C@H]1CC[C@@]2(C)[C@@H]3CC[C@H]4[C@]5(O)C[C@H](O)[C@@]6(O)[C@@H](CN7C[C@@H](C)CC[C@H]7[C@@]6(C)O)[C@]5(O)C[C@@]42O[C@]13O", 0.988],
  ["COc1ccc2c3c([nH]c2c1)C(C)=NCC3", 0.989],
  ["CC(=O)NC(C(=O)O)C(C)(C)SN=O (stereo not drawn)", 1],
  ["CCCOc1ccccc1-c1nc2n[nH]nc2c(=O)[nH]1", 1.01],
  ["COc1c(CC(=O)c2cc3c(cc2O)OC(C)(C)C(O)C3)ccc2c1C=CC(C)(C)O2 (stereo not drawn)", 1.01]
]}

Prompt line: Requested read-out: normalized growth. Entry: COC(=O)C[C@H]1C(C)(C)C(=O)[C@@H]2CC3C4=CC(=O)O[C@@H](c5ccoc5)[C@]4(C)CCC3[C@@]1(C)C2=O (stereo partly drawn)
Response line: 0.995

Prompt line: Reported normalized growth for `O=C1c2c(O)cccc2Cc2cccc(O)c21` : what is it?
Response line: 1.01

Prompt line: Tell me the measured normalized growth of CC1=CCC2C3(C)C1=CC(=O)OC3CC1C(C)(C)CC(O)C(O)C12C (stereo not drawn) , please.
Response line: 0.998

* * *

# experimentNotes: chemical genetic growth profiling, strain panel (AID 1159580);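 also: tested at 20 µM; growth read once vehicle control cultures reached saturation at 30 °C; 1 = growth at the plate median or of vehicle wells; lower values mean less growth of the strain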
# measurementConditions: S. cerevisiae deletion strains, growth OD, locus YOR316C, strain cot1, stronger effect = lower value
Hit rate of the full screen: of about 5,500 compounds, about 2,000 (36%) were called active. About 18% were inconclusive and are not listed. Some of the results follow.
quantity: normalized growth
Please state the value as a number alone, without comment.

{"columns": ["molecule", "quantity", "reading"],
 "data": [
  ["COC(=O)C[C@H]1C(C)(C)C(=O)[C@@H]2CC3C4=CC(=O)O[C@@H](c5ccoc5)[C@]4(C)CCC3[C@@]1(C)C2=O (stereo not given in full)", "normalized growth", 0.982],
  ["Cc1cn([C@H]2C[C@H](N=[N+]=[N-])[C@@H](CO)O2)c(=O)[nH]c1=O", "normalized growth", 1.01],
  ["Clc1ccccc1C(c1ccccc1)(c1ccccc1)n1ccnc1", "normalized growth", 0.0603],
  ["NNC(=O)c1ccncc1", "normalized growth", 0.997],
  ["COc1cc(N)c(Cl)cc1C(=O)NC1CCN(Cc2ccccc2)CC1", "normalized growth", 0.963],
  ["Nc1c2ccccc2nc2ccccc12", "normalized growth", 0.808]
]}

Prompt line: Request the reported normalized growth associated with C#C[C@]1(OC(C)=O)CCC2C3CCC4=CC(=O)CC[C@@H]4C3CC[C@@]21C (stereo not given in full)
Response line: 0.969

Prompt line: Quick one: normalized growth for CC1(C)CC[C@]2(C(=O)O)CC[C@]3(C)C(=CCC4[C@@]5(C)CC[C@H](O)[C@@](C)(CO)C5CC[C@]43C)C2C1 (stereo not given in full) ?
Response line: 0.989

Prompt line: # input molecule: `O=c1[nH]cc(F)c(=O)[nH]1` ; wanted: its normalized growth
Response line: 0.958

Prompt line: Query (molecule): C[C@]12CCC(=O)C=C1CCC1C2[C@@H](O)C[C@@]2(C)C1CC[C@]2(O)C(=O)CO (stereo not given in full) ; field requested: normalized growth
Response line: 0.994

Prompt line: Need normalized growth, item `O=c1cc(CO)occ1O`
Response line: 1.01

Prompt line: # lookup: normalized growth of CC1=CCC2C3(C)C1=CC(=O)OC3CC1C(C)(C)CC(O)C(O)C12C (stereo not given)
Response line: 0.989

Prompt line: Which normalized growth reading was recorded for the molecule Nc1ccccc1C(=O)CC(N)C(=O)O (stereo not given) ?
Response line: 0.994
